# run_description: reversal of MRP1-mediated doxorubicin resistance, pilot screen, H69AR cells, doxorubicin co-treatment (AID 601)
# test_context: H69AR cells + 2 uM doxorubicin, CellTiter-Glo, 72 h; measured here: viability with 2 uM doxorubicin; at 10 µM; stronger effect = lower value
property_label: viability
Value and unit, in that order.

Worked set:
{"compound": "COc1ccc(/C(O)=C2/C(=O)C(=O)N(Cc3cccnc3)C2c2ccncc2)cc1F (stereo unspecified)", "viability": "94.3%"}
{"compound": "CCOC(=O)C1=C(c2ccccc2)N2CCS(=O)(=O)N=C2S1", "viability": "83.7%"}
{"compound": "CCCCC(CC)C(=O)Nc1ccccc1C#N (stereo unspecified)", "viability": "80.1%"}
{"compound": "CCS(=O)(=O)N1CCC(C(=O)N2CCOCC2)CC1", "viability": "99.6%"}
{"compound": "CS(=O)(=O)N(CC(=O)N1CCCCCC1)c1ccc(Br)cc1", "viability": "80.6%"}

Give measured viability for every item shown.
1. CCCc1[nH]nc2c1C(c1cn[nH]c1-c1ccc(F)cc1)C(C#N)=C(N)O2 (stereo unspecified)
2. CCOC(=O)c1[nH]c2ccc(F)cc2c1NC(=O)C(C)N1CCc2cc(OC)c(OC)cc2C1 (stereo unspecified)
3. CCCc1cc(C(=O)Nc2ccccc2C(=O)OC)no1
4. O=C(C1=C(O)C(=O)N(Cc2ccccc2)C1c1ccncc1)c1ccco1 (stereo unspecified)
5. COc1ccc(CCN(Cc2cc3cccc(C)c3[nH]c2=O)C(=O)N2CCCC2)cc1OC
6. COCCn1nnnc1SCC(=O)N1CCCCC1

Reply:
1: 53.7%; 2: 68.7%; 3: 82%; 4: 101%; 5: 97.3%; 6: 97.4%
